Read-out record for UniProtKB Q5ZRZ4: pIC50
Sequence (Q5ZRZ4 1-164): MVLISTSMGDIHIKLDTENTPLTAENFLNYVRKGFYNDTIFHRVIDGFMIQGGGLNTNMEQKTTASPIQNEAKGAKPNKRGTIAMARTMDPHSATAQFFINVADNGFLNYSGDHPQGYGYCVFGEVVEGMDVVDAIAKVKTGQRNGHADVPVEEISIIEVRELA
pIC50: −log10 of the molar value.

- compound: "CCCCCCCCS(=O)(=O)Nc1cc(Cl)c(C)c(Cl)c1O"
  tested.target: "UniProtKB Q5ZRZ4"
  pIC50: "< 4.00"
- compound: "Cc1cccc(C)c1NC(=O)Nc1cc(Cl)c(O)c(Cl)c1"
  tested.target: "UniProtKB Q5ZRZ4"
  pIC50: "< 4.00"
- compound: "CCc1c(Cl)cc(NCc2ccccc2Sc2ccc(Cl)cc2)c(O)c1Cl"
  tested.target: "UniProtKB Q5ZRZ4"
  pIC50: "< 4.00"
- compound: "CC(C)=CC(=O)Nc1cc(Cl)c(O)c(Cl)c1"
  tested.target: "UniProtKB Q5ZRZ4"
  pIC50: "< 4.00"
- compound: "Cc1c(Cl)cc(NC(=O)CC(C)CC(C)(C)C)c(O)c1Cl (stereo not shown)"
  tested.target: "UniProtKB Q5ZRZ4"
  pIC50: "4.00 to 4.30"
- compound: "Oc1c(NCc2ccccc2Sc2ccc(Cl)cc2)ccc(F)c1F"
  tested.target: "UniProtKB Q5ZRZ4"
  pIC50: "4.00 to 4.30"
- compound: "Oc1c(Cl)cc(NC(=S)Nc2ccccc2C(F)(F)F)cc1Cl"
  tested.target: "UniProtKB Q5ZRZ4"
  pIC50: "< 4.00"
- compound: "CCCCCNC(=O)Nc1ccc(C)cc1O"
  tested.target: "UniProtKB Q5ZRZ4"
  pIC50: "< 4.00"
- compound: "Oc1ccc(NCc2ccccc2Sc2ccc(Cl)cc2)c(O)c1 [Compound 672]"
  tested.target: "UniProtKB Q5ZRZ4"
  pIC50: "4.30 to 5.00"
- compound: "Cc1c(Cl)cc(NCc2ccccc2)c(O)c1Cl"
  tested.target: "UniProtKB Q5ZRZ4"
  pIC50: "< 4.00"
- compound: "CC(C)(C)CC(C)(C)NC(=O)Nc1cc(Cl)c(O)c(Cl)c1"
  tested.target: "UniProtKB Q5ZRZ4"
  pIC50: "< 4.00"
- compound: "CC(CC(=O)Nc1cc(Cl)c(O)c(Cl)c1)CC(C)(C)C (stereo not shown)"
  tested.target: "UniProtKB Q5ZRZ4"
  pIC50: "< 4.00"
- compound: "O=C(NCc1ccccc1)Nc1cc(Cl)c(O)c(Cl)c1"
  tested.target: "UniProtKB Q5ZRZ4"
  pIC50: "< 4.00"
